Item-by-item account of apparent KD of MS2 coat protein
Tested on: MS2 coat protein
Test: apparent KD of MS2 coat protein; designed switch direction (-1 OFF switch, 1 ON switch): -1; higher = weaker reporter binding
Conditions: input ligand: none
# output: bare number, implied unit nM

// below: answered sequences
Request: Give MS2 coat protein apparent KD of MS2 coat protein for AGAUCACAUGAGGAUCACCCAUGUCAGGAUAUCGUCACUGGAGCUUCGGCUCCAGUGACGAGAAGGGAUAAUUA [E1/4-A1] (Eterna round: R97, puzzle: Exclusion 1)
Result: 55

Request: Quick check: apparent KD of MS2 coat protein on MS2 coat protein, item GUCCAGGCAGGAUAUGUACAGGAGCACUUGAGGAUCACCCAAGUCCUCGUGUUGUUGUCAGCAGAAGGGCCCAUUA [Dizaquin] (Eterna round: R97, puzzle: Exclusion 5) ?
Result: 187

Request: Give the reported apparent KD of MS2 coat protein for AACCAGCGAGGAUAUGCUUGCGCGUGUUCUGGUUGUAAUCGACUUGAGGAUCACCCAAGUAGAAGGCGCUGCCG [EX2 #51] (Eterna round: R97, puzzle: Exclusion 2) (system: MS2 coat protein).
Result: 50.9

Request: What is its apparent KD of MS2 coat protein for MS2 coat protein? Entry: UUGUUCCGUGUAGGAUAUUGGUCUCCCUCGGGCCGAGAAGGACAUGAGGAUCACCCAUGUAUGUUAUUAUCGCGCGUGGCGCAU [Design 91] (Eterna round: R96, puzzle: Exclusion NG 1)
Result: 37.9

--- query ---
Request: Value wanted: apparent KD of MS2 coat protein (MS2 coat protein) of entry GUGGAGGUAGGAUAUCCGCUUCCGGACAUGAGGAUCACCCAUGUUGUUCGGAUUGGACAGGGAGAAGGGCCCACAA [Eternabot (Original) Solution 37] (Eterna round: R97, puzzle: Exclusion 5)
Result: 39.3

----------
Listed next: entries and their corresponding apparent KD of K4 kissing-loop reporter.
System: K4 kissing-loop RNA reporter;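 note: bound reporter read as fluorescence of individual clusters on recovered sequencing chips by microscopy, with normalized cluster intensities fitted with a binding model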
Experiment: apparent KD of K4 kissing-loop reporter; higher = weaker reporter binding
Conditions: Eterna round: R107; input ligand: tryptophan 2.4 mM
Give the value, in units of nM, as a plain number.

// known answers, use as guide
Request: Consider the sequence shown here: UGAUACCAGACGGCCGCCACUAGACCAGUCAAAGACUGGAAGUGAUGUUUGAGGAGUGAUGUUCCUAGGACCGGGUCUGGUAUCU [TrypBX 3 #Palindromic #SwitchBubble #StaticStem] What is its recorded apparent KD of K4 kissing-loop reporter?
Result: 41.5

Request: Reported apparent KD of K4 kissing-loop reporter, sequence AAGUCUCGUUAAUUCGUGGUUUCGAUCGAUACCAGUAGCGAGAGUUACCCUUGGCAGCGAAAUGAGUGAUGUUCAUGAAAGAAGA [KL-XTheoA10] : ____
Result: 60

Request: # lookup: apparent KD of K4 kissing-loop reporter of UUUUUAAUCGCAGAUACCAGUCCAGAAUAAAUACUAUAGUGAUGUUAUAUAUAAGGAAAGGACCCUUGGCAGCUGUACUAUAUUU [AstrosSsTheB#8]
Result: 346

Request: So what's the measured apparent KD of K4 kissing-loop reporter for this one? AGUAAUCUCACGGCCGCCACUGUUUAUUGUUUUUAUAGUUAUAAAUCUUGCCAGUGAUGUUGGUACAGGACCGGGUGAGUUAAUA [#25 K4 Tryptophan B Same State]
Result: 316

Request: Record request: apparent KD of K4 kissing-loop reporter value, item AGAACUGUCUUGGAUACCAGUGAUGUUGGUAUCGAUGUGUGAGUGCAAAGCGUCCCACAUUGCCCUUGGCAGCUAAGACUGUUCA [Omei KL Theo B Exc A v3]
Result: 144

---
Request: // returns reported apparent KD of K4 kissing-loop reporter for input UAGUGUCGCGCAGGAUAUACUGAUUGGAGUGAUGUUCCAAACAUGAACGUGAGACUUUUACAAGAAGUAGAAGGGCGUGAGACAU [Exclusion FMN B GF 21]
Result: 404

Request: Which measured apparent KD of K4 kissing-loop reporter value corresponds to GUGUAGAAGUGAGGAUAUCGAUUUAAGAAUAAGCAGUGAUGUUGCAAGCAGGAGGAAUAAGAUUAACGAGAAGGCGUGGAUAUAG [FMN B Exclusion; Euphoria Solution] ?
Result: 99.1

Request: # lookup: apparent KD of K4 kissing-loop reporter of GAUGAUCGCGCGGCCGCCACUGGUCAGUGAUGUUGACAUUAAGGCGCCGAGUAGUAACGGCGCCACAGGACCGGGCGCGAUGUAG [First Shot]
Result: 176

Request: Which measured apparent KD of K4 kissing-loop reporter value corresponds to GCUAUGGUAGGAAGGAGCGCGGACGAAAUAUAUCGAGUGAUGUUCGAAUAAUUAAAUAAAACGCAGGUAGGUCGCCUACUAUAGC [Arginine B K4 25] ?
Result: 97.6

Request: Item under review: CGGCUCACGCAAGGAUAUCGCAGUGAGUACUCUGGAAGAAUAAAGCUAGUGAUGUUAGGUUAGAAGCGAGAAGGUGCGGCCGUAU [theeternabot_sameState_KL_FMN_B_30] . Reported apparent KD of K4 kissing-loop reporter?
Result: 137

Request: Please give the measured apparent KD of K4 kissing-loop reporter for this sequence: AGACUACCUACACUGUCAAUAGACAGUGACUAGGAUAUGCUGAUAAGCAGAAGGAGUGAUGUUCCUGGUAGUCAAAUAAAAUAAU [FmnAX 12 #SwitchBubble #StaticStem #K4Early]
Result: 278
